- Test system: Escherichia coli K-12 MG1655
- Protocol details: Bacterial growth in microscale cultivation, E. coli
- Assay type: cell-based
- Experimental conditions: Escherichia coli, MG1655, complex medium, 40 µM, relative to control; read-out: Growth rate
Assignment: determine reported activity at 40 µM for the given compounds.
Note: unit % is implicit; provide only the numeric part.

Given the compound O=C(/C=C/c1ccc(O)cc1)c1ccc(O)cc1O [Compound 6, 2′,4′,4-Trihydroxychalcone] , what is its reported activity at 40 µM?
99.1

Given the compound O=C(/C=C/c1ccccc1)c1ccc(O)cc1O [Compound 4, 2′,4′-Dihydroxychalcone] , what is its reported activity at 40 µM?
97.2

Given the compound O=C(/C=C/c1ccccc1O)c1ccc(O)cc1O [Compound 7, 2′,4′,2-Trihydroxychalcone] , what is its reported activity at 40 µM?
90.7

Given the compound O=C(/C=C/c1ccc(O)cc1)c1ccccc1O [Compound 3, 2′,4-Dihydroxychalcone] , what is its reported activity at 40 µM?
95

Given the compound O=C(/C=C/c1ccc(O)c(O)c1)c1ccc(O)cc1O [Compound 8, 2′,4′,3,4-Tetrahydroxy-chalcone] , what is its reported activity at 40 µM?
89.4

* * *

- Tgt: C4 PEPC mutant G884R (Flaveria trinervia, UniProt P30694, G884R)
- Sequence (P30694 whole entry G884R): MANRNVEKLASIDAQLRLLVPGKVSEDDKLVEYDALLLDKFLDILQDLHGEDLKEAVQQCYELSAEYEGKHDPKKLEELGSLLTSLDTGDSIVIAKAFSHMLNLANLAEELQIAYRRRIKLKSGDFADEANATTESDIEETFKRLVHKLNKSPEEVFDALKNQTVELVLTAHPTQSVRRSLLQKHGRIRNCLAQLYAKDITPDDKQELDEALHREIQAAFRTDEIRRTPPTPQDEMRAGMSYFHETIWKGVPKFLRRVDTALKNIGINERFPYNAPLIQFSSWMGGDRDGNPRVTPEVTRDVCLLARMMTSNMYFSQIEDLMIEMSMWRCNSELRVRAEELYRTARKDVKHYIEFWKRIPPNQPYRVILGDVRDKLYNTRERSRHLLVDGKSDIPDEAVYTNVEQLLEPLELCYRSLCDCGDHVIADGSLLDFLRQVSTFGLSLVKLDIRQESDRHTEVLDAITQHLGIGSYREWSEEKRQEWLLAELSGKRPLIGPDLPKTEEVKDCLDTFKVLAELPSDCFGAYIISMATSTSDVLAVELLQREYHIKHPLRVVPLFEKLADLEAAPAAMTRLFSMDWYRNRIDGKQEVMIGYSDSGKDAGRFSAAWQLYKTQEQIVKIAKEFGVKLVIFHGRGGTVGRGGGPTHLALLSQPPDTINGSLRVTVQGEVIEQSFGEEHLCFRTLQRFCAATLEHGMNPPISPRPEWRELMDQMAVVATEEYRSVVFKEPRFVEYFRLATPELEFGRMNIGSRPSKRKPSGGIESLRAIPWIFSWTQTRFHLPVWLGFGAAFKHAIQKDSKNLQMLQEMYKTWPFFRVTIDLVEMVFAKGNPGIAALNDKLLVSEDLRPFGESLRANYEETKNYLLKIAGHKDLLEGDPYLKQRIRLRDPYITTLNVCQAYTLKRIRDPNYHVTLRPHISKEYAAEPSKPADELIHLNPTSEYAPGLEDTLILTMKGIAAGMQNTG
- Protocol details: Isothermal titration calorimetry, mutant G884R
Result type: pKd
Kindly note that pKd refers to -log10 of the concentration in mol/L and answer with the value alone.

Given the molecule O=C(/C=C/c1ccc(O)c(O)c1)c1ccc(O)c(O)c1O [Compound 12, 2′,3′,4′,3,4-Pentahydroxy-chalcone] , what is its reported pKd?
5.27

Given the molecule O=C(/C=C/c1cc(O)c(O)c(O)c1)c1ccc(O)cc1O [Compound 9, 2′,4′,3,4,5-Pentahydroxychalcone] , what is its reported pKd?
5.32

Given the molecule O=C(/C=C/c1ccc(O)c(O)c1)c1ccc(O)cc1O [Compound 8, 2′,4′,3,4-Tetrahydroxy-chalcone] , what is its reported pKd?
5.07

* * *

- System: Pseudomonas putida KT2440
- Protocol details: Bacterial growth in microscale cultivation, P. putida
- Format: cell-based
- Experimental conditions: Pseudomonas putida, KT2440, complex medium, 4 µM, relative to control; read-out: Final Backscatter
Result type: activity at 4 µM (%)
Note: unit % is implicit; provide only the numeric part.

Given the molecule O=C(/C=C/c1ccc(O)cc1)c1ccc(O)cc1O [Compound 6, 2′,4′,4-Trihydroxychalcone] , what is its reported activity at 4 µM?
97.7

Given the molecule O=C(/C=C/c1ccc(O)cc1)c1ccccc1O [Compound 3, 2′,4-Dihydroxychalcone] , what is its reported activity at 4 µM?
99.6

Given the molecule O=C(/C=C/c1ccccc1)c1ccc(O)cc1O [Compound 4, 2′,4′-Dihydroxychalcone] , what is its reported activity at 4 µM?
97.8

Given the molecule O=C(/C=C/c1ccc(O)c(O)c1)c1ccc(O)cc1O [Compound 8, 2′,4′,3,4-Tetrahydroxy-chalcone] , what is its reported activity at 4 µM?
97

Given the molecule O=C(/C=C/c1ccccc1O)c1ccc(O)cc1O [Compound 7, 2′,4′,2-Trihydroxychalcone] , what is its reported activity at 4 µM?
99.1

* * *

- System: Escherichia coli K-12 MG1655
- Protocol details: Bacterial growth in microscale cultivation, E. coli
- Type: cell-based
- Experimental conditions: minimal medium, 400 µM, relative to control
- Procedure: The following bacteria were cultivated in the presence of trans-chalcone derived inhibitors: Corynebacterium glutamicum ATCC13032[43], Escherichia coli K-12 MG1655[44], Pseudomonas putida KT2440[45], and Bacillus subtilis 168[46]. The growth of these bacteria was monitored in flower-well plates shaken at 1200 rpm as backscatter at 620 nm (gain 20) using a BioLector® microscale cultivation system (m2p labs, Baesweiler, Germany). […]
Result type: Lag Phase

Given the compound O=C(/C=C/c1ccc(O)cc1)c1ccc(O)cc1O [Compound 6, 2′,4′,4-Trihydroxychalcone] , what is its reported Lag Phase?
101,8%

Given the compound O=C(/C=C/c1ccccc1O)c1ccc(O)cc1O [Compound 7, 2′,4′,2-Trihydroxychalcone] , what is its reported Lag Phase?
99,3%

Given the compound O=C(/C=C/c1ccccc1)c1ccc(O)cc1O [Compound 4, 2′,4′-Dihydroxychalcone] , what is its reported Lag Phase?
101,1%

Given the compound O=C(/C=C/c1ccc(O)cc1)c1ccccc1O [Compound 3, 2′,4-Dihydroxychalcone] , what is its reported Lag Phase?
98,6%

* * *

- Tested on: Escherichia coli K-12 MG1655
- Protocol details: Bacterial growth in microscale cultivation, E. coli
- Format: cell-based
- Experimental conditions: Escherichia coli, MG1655, minimal medium, 40 µM, relative to control; read-out: Final Backscatter
Result type: activity at 40 µM (%)
Note: unit % is implicit; provide only the numeric part.

For Escherichia coli K-12 MG1655, provide activity at 40 µM of O=C(/C=C/c1ccc(O)cc1)c1ccc(O)cc1O [Compound 6, 2′,4′,4-Trihydroxychalcone] please.
98.8

For Escherichia coli K-12 MG1655, provide activity at 40 µM of O=C(/C=C/c1ccc(O)c(O)c1)c1ccc(O)cc1O [Compound 8, 2′,4′,3,4-Tetrahydroxy-chalcone] please.
96.6

For Escherichia coli K-12 MG1655, provide activity at 40 µM of O=C(/C=C/c1ccccc1O)c1ccc(O)cc1O [Compound 7, 2′,4′,2-Trihydroxychalcone] please.
97.2

For Escherichia coli K-12 MG1655, provide activity at 40 µM of O=C(/C=C/c1ccccc1)c1ccc(O)cc1O [Compound 4, 2′,4′-Dihydroxychalcone] please.
99.3

For Escherichia coli K-12 MG1655, provide activity at 40 µM of O=C(/C=C/c1ccc(O)cc1)c1ccccc1O [Compound 3, 2′,4-Dihydroxychalcone] please.
99.1

* * *

- System: Pseudomonas putida KT2440
- Protocol details: Bacterial growth in microscale cultivation, P. putida
- Assay type: cell-based
- Experimental conditions: Pseudomonas putida, KT2440, complex medium, 400 µM, relative to control; read-out: Final Backscatter
Assignment: determine reported activity at 400 µM for the given compounds.
Note: unit % is implicit; provide only the numeric part.

Given the compound O=C(/C=C/c1ccccc1)c1ccc(O)cc1O [Compound 4, 2′,4′-Dihydroxychalcone] , what is its reported activity at 400 µM?
100

Given the compound O=C(/C=C/c1ccc(O)cc1)c1ccccc1O [Compound 3, 2′,4-Dihydroxychalcone] , what is its reported activity at 400 µM?
99.5

Given the compound O=C(/C=C/c1ccccc1O)c1ccc(O)cc1O [Compound 7, 2′,4′,2-Trihydroxychalcone] , what is its reported activity at 400 µM?
99.9

Given the compound O=C(/C=C/c1ccc(O)cc1)c1ccc(O)cc1O [Compound 6, 2′,4′,4-Trihydroxychalcone] , what is its reported activity at 400 µM?
99.9

Given the compound O=C(/C=C/c1ccccc1)c1ccccc1 [Compound 1, trans-Chalcone] , what is its reported activity at 400 µM?
97.3

* * *

Assignment: determine reported activity at 4 µM for the given compounds.
- Tested on: Escherichia coli K-12 MG1655
- Protocol details: Bacterial growth in microscale cultivation, E. coli
- Assay type: cell-based
- Experimental conditions: Escherichia coli, MG1655, complex medium, 4 µM, relative to control; read-out: Growth rate
- Method: The following bacteria were cultivated in the presence of trans-chalcone derived inhibitors: Corynebacterium glutamicum ATCC13032[43], Escherichia coli K-12 MG1655[44], Pseudomonas putida KT2440[45], and Bacillus subtilis 168[46]. The growth of these bacteria was monitored in flower-well plates shaken at 1200 rpm as backscatter at 620 nm (gain 20) using a BioLector® microscale cultivation system (m2p labs, Baesweiler, Germany). […]
// return the numeric value with its unit appended

Given the compound O=C(/C=C/c1ccc(O)c(O)c1)c1ccc(O)cc1O [Compound 8, 2′,4′,3,4-Tetrahydroxy-chalcone] , what is its reported activity at 4 µM?
95%

Given the compound O=C(/C=C/c1ccccc1O)c1ccc(O)cc1O [Compound 7, 2′,4′,2-Trihydroxychalcone] , what is its reported activity at 4 µM?
93.3%

Given the compound O=C(/C=C/c1ccc(O)cc1)c1ccc(O)cc1O [Compound 6, 2′,4′,4-Trihydroxychalcone] , what is its reported activity at 4 µM?
96%

Given the compound O=C(/C=C/c1ccc(O)cc1)c1ccccc1O [Compound 3, 2′,4-Dihydroxychalcone] , what is its reported activity at 4 µM?
88.3%

Given the compound O=C(/C=C/c1ccccc1)c1ccc(O)cc1O [Compound 4, 2′,4′-Dihydroxychalcone] , what is its reported activity at 4 µM?
79.6%

* * *

- Tested on: Bacillus subtilis 168
- Protocol details: Bacterial growth in microscale cultivation, B. subtilis
- Format: cell-based
- Experimental conditions: Bacillus subtilis, 168, minimal medium, 400 µM, relative to control; read-out: Growth rate
Result type: activity at 400 µM

Given the molecule O=C(/C=C/c1ccccc1O)c1ccc(O)cc1O [Compound 7, 2′,4′,2-Trihydroxychalcone] , what is its reported activity at 400 µM?
70.4%

Given the molecule O=C(/C=C/c1ccccc1)c1ccc(O)cc1O [Compound 4, 2′,4′-Dihydroxychalcone] , what is its reported activity at 400 µM?
75.2%

Given the molecule O=C(/C=C/c1ccc(O)cc1)c1ccc(O)cc1O [Compound 6, 2′,4′,4-Trihydroxychalcone] , what is its reported activity at 400 µM?
88.2%

Given the molecule O=C(/C=C/c1ccc(O)cc1)c1ccccc1O [Compound 3, 2′,4-Dihydroxychalcone] , what is its reported activity at 400 µM?
113%
